The values you see were collected from patent US6737383B1.

system: crabgrass; test: Test B pre/postemergence crabgrass; assay type: in vivo, Digitaria sanguinalis; conditions: Rate 500 g/ha, Postemergence; scale 0 to 10, 0 is no effect, 10 is complete control
Form field: Crabgrass plant response rating (one value per entry).
Answer as a number with no unit attached.

Answered examples (3):
Compound: CC(C)N(C(=O)n1oc(=O)n(Cc2nnc(Cl)s2)c1=O)c1ccccc1 [Compound 654]
Crabgrass plant response rating: 7

Compound: COP(=O)(CCn1c(=O)on(C(=O)N(c2ccc(F)cc2)C(C)C)c1=O)OC [Compound 662]
Crabgrass plant response rating: 2

Compound: CC(CBr)Cn1c(=O)on(C(=O)N(c2ccc(F)cc2)C(C)C)c1=O (stereo not shown) [Compound 752]
Crabgrass plant response rating: 10

In: Give me measured Crabgrass plant response rating, please, for this compound: CC(C)N(C(=O)n1oc(=O)n(C(C)C(=S)N(C)C)c1=O)c1ccc(F)cc1F (stereo not shown) [Compound 739]
Out: 9

---

test system: giant foxtail; experiment: Test B pre/postemergence giant foxtail; format: in vivo, Setaria faberii; conditions: Postemergence, Rate 250 g/ha; scale 0 to 10, 0 no effect, 10 complete control
Each entry below lists one item and its recorded Giant foxtail plant response rating value.
When you answer, write just the number.

Compound: COc1ccc(-n2c(=O)on(C(=O)N(c3ccc(F)cc3)C(C)C)c2=O)c(OC)c1 [Compound 33]
Reported: 3
//
Compound: Cc1ccccc1Cn1c(=O)on(C(=O)N(C)c2ccccc2)c1=O [Compound 85]
Reported: 0
//
Compound: CN(C(=O)n1oc(=O)n(Cc2cccs2)c1=O)c1ccccc1 [Compound 83]
Reported: 0

Now for the compound whose Giant foxtail plant response rating we want.
In: Please tell me the measured Giant foxtail plant response rating for Cc1ccccc1-n1c(=O)on(C(=O)N(c2ccc(F)cc2)C2CC2)c1=O [Compound 37] ; system: giant foxtail.
Out: 0

---

tested on: velvetleaf; test: Test B pre/postemergence velvetleaf; type: in vivo, Abutilon theophrasti; conditions: Postemergence, Rate 250 g/ha; scale 0 to 10, 0 no effect, 10 complete control
Measurement Label: Velvetleaf plant response rating
Give a plain numeric answer without units written out.

// solved cases for Velvetleaf plant response rating follow
Molecule: COc1cccc(C)c1-n1c(=O)on(C(=O)N(c2ccccc2)C(C)C)c1=O [Compound 73]
Reported: 4
//
Molecule: Cc1nn(C)c(C)c1-n1c(=O)on(C(=O)N(c2ccc(F)cc2F)C(C)C)c1=O [Compound 76]
Reported: 3
//
Molecule: Cc1ccccc1Cn1c(=O)on(C(=O)N(C)c2ccccc2)c1=O [Compound 85]
Reported: 0
//
Molecule: CC(C)N(C(=O)n1oc(=O)n(-c2ccccc2OC(F)(F)F)c1=O)c1ccc(F)cc1 [Compound 14]
Reported: 0

In: Specify reported Velvetleaf plant response rating for the molecule shown: CCN(C(=O)n1oc(=O)n(-c2ccc(F)cc2F)c1=O)C1CCCCC1 [Compound 23]
Out: 0

In: Give the reported value of Velvetleaf plant response rating for this record: COc1cccc(C)c1-n1c(=O)on(C(=O)N(c2ccc(F)cc2)C(C)C)c1=O [Compound 62]
Out: 2

---

Tested on: bedstraw
Test: Test B pre/postemergence bedstraw
Assay type: in vivo, Galium aparine
Details: Preemergence, Rate 250 g/ha; scale of 0 to 10 where 0 is no effect and 10 is complete control
Procedure: […] At the same time, these crop and weed species were also treated with postemergence applications of test chemicals formulated in the same manner. […] Treated plants and controls were maintained in a greenhouse for twelve to sixteen days, after which all species were compared to controls and visually evaluated. […]
Measurement Label: Bedstraw plant response rating
Just the number, please, no unit attached.

The examples below pair each entry with its known result.
Compound: COCC(C)n1c(=O)on(C(=O)N(c2ccc(F)cc2F)C(C)C)c1=O (stereo not drawn)
Measurement Label: Bedstraw plant response rating
Reported: 10
--
Compound: CC(C)N(C(=O)n1oc(=O)n(CCCCF)c1=O)c1ccc(F)cc1
Measurement Label: Bedstraw plant response rating
Reported: 7
--
Compound: Cc1nc(C)c(Cn2c(=O)on(C(=O)N(c3ccc(F)cc3F)C(C)C)c2=O)s1
Measurement Label: Bedstraw plant response rating
Reported: 0
--
Compound: CC(C)N(C(=O)n1oc(=O)n(C2(C)CC2)c1=O)c1ccc(F)cc1F
Measurement Label: Bedstraw plant response rating
Reported: 10
--
Compound: COC(=O)C=CCn1c(=O)on(C(=O)N(c2ccc(F)cc2)C(C)C)c1=O
Measurement Label: Bedstraw plant response rating
Reported: 0

Could you now consider this next compound?
In: Fill in reported Bedstraw plant response rating for this entry: COc1cc(C)cc(C)c1-n1c(=O)on(C(=O)N(c2ccc(F)cc2)C(C)C)c1=O
Out: 0

---

test system: wheat; test: Test B pre/postemergence wheat; assay type: in vivo, Triticum aestivum; settings: Preemergence, Rate 125 g/ha; scale of 0 to 10 where 0 is no effect and 10 is complete control
Measurement Label: Plant response rating, Wheat
# print the numeric value only

Example molecules with recorded Plant response rating, Wheat:
Molecule: CC(C)N(C(=O)n1oc(=O)n(C(CF)CCl)c1=O)c1ccc(F)cc1 (racemic)
Plant response rating, Wheat: 2
//
Molecule: CC(C)N(C(=O)n1oc(=O)n(CCCCl)c1=O)c1ccc(F)cc1
Plant response rating, Wheat: 0
//
Molecule: CC(C)N(C(=O)n1oc(=O)n(COC(=O)C(C)(C)C)c1=O)c1ccc(F)cc1
Plant response rating, Wheat: 0
//
Molecule: CC(C)N(C(=O)n1oc(=O)n(CC2=NOCC2)c1=O)c1ccccc1
Plant response rating, Wheat: 4

Now for the molecule whose Plant response rating, Wheat we want.
In: // fetch Plant response rating, Wheat given entry CC(C)N(C(=O)n1oc(=O)n(CC2(C)COC2)c1=O)c1ccccc1
Out: 0

---

system: wild oat; assay: Test B pre/postemergence wild oat; format: in vivo, Avena fatua; conditions: Rate 1000 g/ha, Preemergence; scale 0 to 10 (0 no effect, 10 complete control)
In plain terms, low Plant response rating, Wild oats, meaning strictly below 5, gives Met, and everything else gives Not met.

See these solved cases before continuing.
Smiles Repr: CCN(CC)C(=O)n1oc(=O)n(-c2ccc(F)cc2)c1=O
Group Label: Met
//
Smiles Repr: C=CCn1c(=O)on(C(=O)N(c2ccc(F)cc2F)C2CC2)c1=O
Group Label: Not met
//
Smiles Repr: COP(=O)(CCn1c(=O)on(C(=O)N(c2ccc(F)cc2)C(C)C)c1=O)OC
Group Label: Not met

In the following, a different compound is considered.
In: Record COc1ccc(-n2c(=O)on(C(=O)N(c3ccc(F)cc3)C(C)C)c2=O)cc1 : is its Plant response rating, Wild oats strictly below 5?
Out: Not met

---

tested on: crabgrass; test: Test B pre/postemergence crabgrass; format: in vivo, Digitaria sanguinalis; settings: Preemergence, Rate 250 g/ha; scale of 0 to 10 where 0 is no effect and 10 is complete control
Crabgrass plant response rating: recorded values
API note: the answer field is a bare number with no unit suffix.

Molecule: CC(C)N(C(=O)n1oc(=O)n(C2CC3CCC2C3)c1=O)c1ccccc1 (stereo not shown)
Crabgrass plant response rating: 3
--
Molecule: CC(C)N(C(=O)n1oc(=O)n(C2(C)CC2)c1=O)c1ccc(F)cc1F
Crabgrass plant response rating: 7
--
Molecule: Cc1ccccc1-n1c(=O)on(C(=O)N(c2ccc(C(C)C)cc2)C(C)C)c1=O
Crabgrass plant response rating: 0
--
Molecule: CCCCCCCCCCCCCCCCCCCn1c(=O)on(C(=O)N(c2ccc(F)cc2)C(C)C)c1=O
Crabgrass plant response rating: 0
--
Molecule: CC(C)N(C(=O)n1oc(=O)n(N2CCOCC2)c1=O)c1ccc(F)cc1
Crabgrass plant response rating: 9

In: Give Crabgrass plant response rating for this entry on crabgrass: CCOC(=O)C(C)N(C(=O)n1oc(=O)n(-c2ccccc2C)c1=O)c1ccc(F)cc1 (stereo not shown)
Out: 2

In: Would you please give the reported Crabgrass plant response rating of Cc1nc(C)c(Cn2c(=O)on(C(=O)N(c3ccc(F)cc3F)C(C)C)c2=O)s1 with crabgrass?
Out: 9

In: Give the observed Crabgrass plant response rating of CC(C)N(C(=O)n1oc(=O)n(Cc2ccccc2-c2ccccc2)c1=O)c1ccc(F)cc1 for crabgrass.
Out: 0

In: Tell me Crabgrass plant response rating of Cc1cccc(C(C)(C)C)c1-n1c(=O)on(C(=O)N(c2ccccc2)C(C)C)c1=O when tested on crabgrass.
Out: 0

In: Give Crabgrass plant response rating; test system crabgrass; molecule CC(C)N(C(=O)n1oc(=O)n(C)c1=O)c1ccc(F)cc1F
Out: 10

---

test system: sugar beet; experiment: Test B pre/postemergence sugar beet; format: in vivo, Beta vulgaris; conditions: Preemergence, Rate 500 g/ha; scale of 0 to 10 where 0 is no effect and 10 is complete control
Quick list: Sugarbeets plant response rating per entry.
Respond using a number only.

Reference set, count: 2
Molecule: C=CCCCn1c(=O)on(C(=O)N(c2ccccc2)C(C)C)c1=O
Sugarbeets plant response rating: 2

Molecule: CCN(C(=O)n1oc(=O)n(C(C)C)c1=O)C1CCCCC1
Sugarbeets plant response rating: 0

In: Give Sugarbeets plant response rating; test system sugar beet; molecule CC(C)N(C(=O)n1oc(=O)n(C2CC3CCC2C3)c1=O)c1ccccc1 (stereo not shown)
Out: 0

In: Specify the recorded Sugarbeets plant response rating for COCC(C)n1c(=O)on(C(=O)N(c2ccc(F)cc2F)C(C)C)c1=O (stereo not shown) , system: sugar beet.
Out: 6
